// data source = patent US20060269550A1

Target: T1, rat ghrelin (full length, acylated) (rat, UniProt Q9QYH7 24-51, acylated (group and position not restated for the rat peptide))
T1 construct: mature; the assay used the full-length ghrelin peptide
T1 peptide (looked up): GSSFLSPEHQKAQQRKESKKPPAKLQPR
Test: SPR, BIAcore 2000, 25 C; Fab captured by goat anti-mouse kappa, rat ghrelin as analyte; koff/kon, average of three
Protocol: The BIAcore® utilizes the optical properties of surface plasmon resonance to detect alterations in protein concentration of interacting molecules within a dextran biosensor matrix. Except where noted, all reagents and materials were purchased from BIAcore® AB (Upsala, Sweden). […] The surface density was monitored and additional goat anti-mouse Kappa was injected if needed to individual cell until all flow cells reach a surface density of 4500-5000 response units (RU). […]
Kd values, listed per item
A number alone suffices; assume nM.

Known results for binders:
anti-hGhrelin Fab 2211 (Fab, V domains shown, Mouse Fab, kappa light chain) VH: EIQLQQSGAELMRPGASVKLSCKATGYTFTGYWIEWVKQRPGHGLEWIGEILPGSGSTNYNEKFKGKATFTADTSSNTANMQLSSLTTEDSAIYYCARYPQFGLRRERIAYWGQGTLVTVSV VL: DLVLTQSPASLAVSLGQRATISCRASKSVSTSGYSYMHWYQQKPGQPPKLLIYLASNLESGVPARFSGSGSGTDFTLNIHPVEEEDAATYYCQHSRELPYTFGAGTKLELKR :: 5.42
anti-hGhrelin Fab 2291 (Fab, V domains shown, Mouse Fab, kappa light chain) VH: EIQLQQSGAELMKPGASVKLSCKATGYTFTGYWIEWAKQRPGHGLEWIGEILPGSGSTNYNEKFKGKATFTADTSSNTANMQLSSLTTEDSAIYYCARYPQFRLRRERIAYWGQGTLVTVSV VL: DLVLTQSPASLAVSLGQRATISCRASKSVSTSGYSYMHWYQQKPGQPPKLLIYLASNLEPGVPARFSGSGSGTDFTLNIHPVEEEDAATYYCQHSRELPYTFGAGTKLELKR :: 1.68
anti-hGhrelin Fab 2891 (Fab, V domains shown, Mouse Fab, kappa light chain) VH: EIQLQQSGAELMKPGASVKLSCKATGYTFTGYWIEWVKQRPGHGLEWIGEILPGSGSTNYNEKFKGKATFTADTSSNTANMQLSSLTTEDSAIYYCARYPQFRLRRERIAYWGQGTLVTVSV VL: DLVLTQSPASLAVSLGQRATISCRASKSVSTSGYSYMHWYQQKPGQPPKLLIYLASNLESGVPARFSGSGSGTDFTLNIHPVEEEDAATYYCQHSRELPYTFGAGTKLELKR :: 1.16

Quote Kd reported for anti-hGhrelin Fab 1111 (Fab, V domains shown, Mouse Fab from an Omniclonal library (immunised C57Bl/6 mice); kappa light chain (detected or captured with goat anti-mouse kappa)) VH: EIQLQQSGAELMKPGASVKLSCKATGYIFTGYWIEWVKQRPGHGLEWIGEILPGSGSTNYNEKFKGKATFTADTSSNTANMQLSSLTTEDSAIYYCARYPQFRLRRERIAYWGQGTLVTVSV VL: DLVLTQSPASLAVSLGQRATISCRASKSVSTSGYSYMHWYQQKPGQPPKLLIYLASNLESGVPARFSGSGSGTDFTLNIHPVEEEDAATYYCQHSRELPYTFGAGTKLELKR please.
1.14
